Origin of the recorded values: ChEMBL document CHEMBL5260815

Molecular target: S-sulfocysteine synthase (Mycobacterium tuberculosis (strain ATCC 25618 / H37Rv))
Sequence (Q79FV4 whole entry): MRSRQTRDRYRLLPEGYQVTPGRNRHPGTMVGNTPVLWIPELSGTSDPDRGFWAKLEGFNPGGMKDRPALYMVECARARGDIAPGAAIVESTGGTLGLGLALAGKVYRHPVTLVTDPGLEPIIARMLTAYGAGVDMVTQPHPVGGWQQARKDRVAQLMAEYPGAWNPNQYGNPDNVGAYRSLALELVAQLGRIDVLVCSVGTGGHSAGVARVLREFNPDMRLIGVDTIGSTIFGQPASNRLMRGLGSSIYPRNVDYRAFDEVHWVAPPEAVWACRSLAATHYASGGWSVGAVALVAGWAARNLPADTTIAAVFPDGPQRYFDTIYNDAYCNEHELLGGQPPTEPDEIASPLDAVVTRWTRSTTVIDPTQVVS
Assay: Inhibition of hexahistidine-tagged recombinant Mycobacterium tuberculosis CysK2 expressed in Escherichia coli BL21(DE3) assessed as dissociation constant using PLP as substrate incubated for 5 mins by fluorescence analysis
Listed next: entries and their corresponding Kd.
Report only the number, with the unit µM understood.

1. Cc1ccc(NC(=O)Nc2cccc(C(=O)O)c2)cc1    148
2. O=C(Nc1cccc(-c2ccccc2)c1)Nc1ccc(O)c(C(=O)O)c1    102
3. O=C(Nc1cccc(C(=O)O)c1)Nc1ccc(Cl)c(Cl)c1    48.7
4. O=C(Nc1cccc(C(=O)O)c1)Nc1cccc(-c2ccccc2)c1    14.9

Request the reported Kd associated with `O=C(Nc1ccc(Cl)cc1)Nc1cccc(C(=O)O)c1` 16.9

Request the reported Kd associated with `O=C(Nc1ccc(Br)cc1)Nc1cccc(C(=O)O)c1` 17.7

Request the reported Kd associated with `O=C(Nc1cccc(-c2nnn[nH]2)c1)Nc1ccc(Cl)c(Cl)c1` 80.3
